# TESTED SYSTEM: αvβ5
# PROTOCOL DESCRIPTION: ELISA
Starred links: 1 amine or outer side, 2 acyl side, 3 side chain; linkers in the order of their positions; H or OH if unused. Positions of bridges follow the written chain, without caps; N, C: chain ends. Non-standard residues stand in square brackets, D forms with d. No end group written: not given here. Cys(β,β-pentamethylene) = O=C([C@@H](N[*:1])C1(S[*:3])CCCCC1)[*:2]; dPen = CC(C)(S)[C@@H](N)C(=O)O; Pen = CC(C)(S)[C@H](N)C(=O)O
ASSAY METRIC: pIC50
Hey, just a heads up that pIC50 is the negative log base 10 of the concentration in molar.

Quick one: pIC50 for R[Pen]GHRGDLRCR (disulfide 2-10) [R(Pen)GHRGDLRCR] ?
5.31

Quick one: pIC50 for R[Cys(β,β-pentamethylene)]GHRGDLRCR (disulfide 2-10 (inferred); also: D,L-Pmc mixture at 2) [R(Pmc)GHRGDLRCR] ?
5.80

Quick one: pIC50 for R[dPen]GHRGDLRCR (disulfide 2-10) [R(D-Pen)GHRGDLRCR] ?
5.00

Quick one: pIC50 for G[dPen]GHRGDLRCA (disulfide 2-10) [G(D-Pen)GHRGDLRCA] ?
5.28

Quick one: pIC50 for G[Pen]GHRGDLRCA (disulfide 2-10) [G(Pen)GHRGDLRCA] ?
5.08
